ASSAY INFO: Megestrol Acetate in plasma samples by GC/MS
Assay type: in vivo
EXPERIMENTAL CONDITIONS: human, 1.5 mg, Sub 3, 1.5 mg dose, 1 h post dosing
MEASUREMENT NAME: concentration at 1 h (ng/mL)
Give your result in ng/mL as a bare value.

Looking for the measured concentration at 1 h of CC(=O)O[C@]1(C(C)=O)CC[C@H]2[C@@H]3C=C(C)C4=CC(=O)CC[C@]4(C)[C@H]3CC[C@@]21C [megestrol acetate] , can you help?
9.32

---

ASSAY INFO: Megestrol Acetate in plasma samples by GC/MS
Format: in vivo
EXPERIMENTAL CONDITIONS: human, 1.5 mg, Sub 9, 1.5 mg dose, 24 h post dosing
MEASUREMENT NAME: concentration at 24 h (ng/mL)
Give your result in ng/mL as a bare value.

Looking for the measured concentration at 24 h of CC(=O)O[C@]1(C(C)=O)CC[C@H]2[C@@H]3C=C(C)C4=CC(=O)CC[C@]4(C)[C@H]3CC[C@@]21C [megestrol acetate] , can you help?
1.09

---

ASSAY INFO: Megestrol Acetate in plasma samples by GC/MS
Assay type: in vivo
EXPERIMENTAL CONDITIONS: human, 1.5 mg, Sub 9, 1.5 mg dose, 1 h post dosing
MEASUREMENT NAME: concentration at 1 h (ng/mL)
Give your result in ng/mL as a bare value.

Looking for the measured concentration at 1 h of CC(=O)O[C@]1(C(C)=O)CC[C@H]2[C@@H]3C=C(C)C4=CC(=O)CC[C@]4(C)[C@H]3CC[C@@]21C [megestrol acetate] , can you help?
14.4

---

ASSAY INFO: Megestrol Acetate in plasma samples by GC/MS
Assay type: in vivo
EXPERIMENTAL CONDITIONS: human, 6 mg, Sub 6, 6 mg dose, time 0 h (predose)
MEASUREMENT NAME: concentration at 0 h (ng/mL)
Give your result in ng/mL as a bare value.

Looking for the measured concentration at 0 h of CC(=O)O[C@]1(C(C)=O)CC[C@H]2[C@@H]3C=C(C)C4=CC(=O)CC[C@]4(C)[C@H]3CC[C@@]21C [megestrol acetate] , can you help?
8.58

---

ASSAY INFO: Megestrol Acetate in plasma samples by GC/MS
Assay type: in vivo
EXPERIMENTAL CONDITIONS: human, 1.5 mg, Sub 3, 1.5 mg dose, 36 h post dosing
MEASUREMENT NAME: concentration at 36 h (ng/mL)
Give your result in ng/mL as a bare value.

Looking for the measured concentration at 36 h of CC(=O)O[C@]1(C(C)=O)CC[C@H]2[C@@H]3C=C(C)C4=CC(=O)CC[C@]4(C)[C@H]3CC[C@@]21C [megestrol acetate] , can you help?
1.99

---

ASSAY INFO: Megestrol Acetate in plasma samples by GC/MS
Assay type: in vivo
EXPERIMENTAL CONDITIONS: human, 6 mg, Sub 6, 6 mg dose, 12 h post dosing
MEASUREMENT NAME: concentration at 12 h (ng/mL)
Give your result in ng/mL as a bare value.

Looking for the measured concentration at 12 h of CC(=O)O[C@]1(C(C)=O)CC[C@H]2[C@@H]3C=C(C)C4=CC(=O)CC[C@]4(C)[C@H]3CC[C@@]21C [megestrol acetate] , can you help?
5.8

---

ASSAY INFO: Megestrol Acetate in plasma samples by GC/MS
Assay type: in vivo
EXPERIMENTAL CONDITIONS: human, 6 mg, Sub 8, 6 mg dose, 12 h post dosing
MEASUREMENT NAME: concentration at 12 h (ng/mL)
Give your result in ng/mL as a bare value.

Looking for the measured concentration at 12 h of CC(=O)O[C@]1(C(C)=O)CC[C@H]2[C@@H]3C=C(C)C4=CC(=O)CC[C@]4(C)[C@H]3CC[C@@]21C [megestrol acetate] , can you help?
0.908

---

ASSAY INFO: Megestrol Acetate in plasma samples by GC/MS
Type: in vivo
EXPERIMENTAL CONDITIONS: human, 6 mg, Sub 6, 6 mg dose, 36 h post dosing
MEASUREMENT NAME: concentration at 36 h

Looking for the measured concentration at 36 h of CC(=O)O[C@]1(C(C)=O)CC[C@H]2[C@@H]3C=C(C)C4=CC(=O)CC[C@]4(C)[C@H]3CC[C@@]21C [megestrol acetate] , can you help?
6.58 ng/mL

---

ASSAY INFO: Megestrol Acetate in plasma samples by GC/MS
Assay type: in vivo
EXPERIMENTAL CONDITIONS: human, 6 mg, Sub 4, 6 mg dose, 4 h post dosing
MEASUREMENT NAME: concentration at 4 h (ng/mL)
Give your result in ng/mL as a bare value.

Looking for the measured concentration at 4 h of CC(=O)O[C@]1(C(C)=O)CC[C@H]2[C@@H]3C=C(C)C4=CC(=O)CC[C@]4(C)[C@H]3CC[C@@]21C [megestrol acetate] , can you help?
7.22

---

ASSAY INFO: Megestrol Acetate in plasma samples by GC/MS
Format: in vivo
EXPERIMENTAL CONDITIONS: human, 6 mg, Sub 4, 6 mg dose, time 0 h (predose)
MEASUREMENT NAME: concentration at 0 h (ng/mL)
Give your result in ng/mL as a bare value.

Looking for the measured concentration at 0 h of CC(=O)O[C@]1(C(C)=O)CC[C@H]2[C@@H]3C=C(C)C4=CC(=O)CC[C@]4(C)[C@H]3CC[C@@]21C [megestrol acetate] , can you help?
4.44

---

ASSAY INFO: Megestrol Acetate in plasma samples by GC/MS
Assay type: in vivo
EXPERIMENTAL CONDITIONS: human, 1.5 mg, Sub 3, 1.5 mg dose, 48 h post dosing
Protocol: A total of 90 plasma samples were analyzed for their content of Megestrol Acetate by GC/MS. In this study megestrol acetate was utilized and medroxyprogesterone acetate was utilized as an internal standard. For each sample, 1 mL of human plasma was aliquoted and spiked with 25 μL of the internal standard working solution. […] The time measured represents the number of hours passed post dosing. […] During the study, 3 series of plasma calibration curves were measured (prevalidation run not considered).
MEASUREMENT NAME: concentration at 48 h (ng/mL)
Give your result in ng/mL as a bare value.

Looking for the measured concentration at 48 h of CC(=O)O[C@]1(C(C)=O)CC[C@H]2[C@@H]3C=C(C)C4=CC(=O)CC[C@]4(C)[C@H]3CC[C@@]21C [megestrol acetate] , can you help?
1.48

---

ASSAY INFO: Megestrol Acetate in plasma samples by GC/MS
Format: in vivo
EXPERIMENTAL CONDITIONS: human, 6 mg, Sub 2, 6 mg dose, 4 h post dosing
MEASUREMENT NAME: concentration at 4 h (ng/mL)
Give your result in ng/mL as a bare value.

Looking for the measured concentration at 4 h of CC(=O)O[C@]1(C(C)=O)CC[C@H]2[C@@H]3C=C(C)C4=CC(=O)CC[C@]4(C)[C@H]3CC[C@@]21C [megestrol acetate] , can you help?
9.89

---

ASSAY INFO: Megestrol Acetate in plasma samples by GC/MS
Format: in vivo
EXPERIMENTAL CONDITIONS: human, 1.5 mg, Sub 9, 1.5 mg dose, 48 h post dosing
MEASUREMENT NAME: concentration at 48 h (ng/mL)
Give your result in ng/mL as a bare value.

Looking for the measured concentration at 48 h of CC(=O)O[C@]1(C(C)=O)CC[C@H]2[C@@H]3C=C(C)C4=CC(=O)CC[C@]4(C)[C@H]3CC[C@@]21C [megestrol acetate] , can you help?
1.31

---

ASSAY INFO: Megestrol Acetate in plasma samples by GC/MS
Assay type: in vivo
EXPERIMENTAL CONDITIONS: human, 1.5 mg, Sub 3, 1.5 mg dose, time 0 h (predose)
MEASUREMENT NAME: concentration at 0 h (ng/mL)
Give your result in ng/mL as a bare value.

Looking for the measured concentration at 0 h of CC(=O)O[C@]1(C(C)=O)CC[C@H]2[C@@H]3C=C(C)C4=CC(=O)CC[C@]4(C)[C@H]3CC[C@@]21C [megestrol acetate] , can you help?
1.98

---

ASSAY INFO: Megestrol Acetate in plasma samples by GC/MS
Type: in vivo
EXPERIMENTAL CONDITIONS: human, 1.5 mg, Sub 5, 1.5 mg dose, time 0 h (predose)
MEASUREMENT NAME: concentration at 0 h

Looking for the measured concentration at 0 h of CC(=O)O[C@]1(C(C)=O)CC[C@H]2[C@@H]3C=C(C)C4=CC(=O)CC[C@]4(C)[C@H]3CC[C@@]21C [megestrol acetate] , can you help?
0.426 ng/mL

---

ASSAY INFO: Megestrol Acetate in plasma samples by GC/MS
Assay type: in vivo
EXPERIMENTAL CONDITIONS: human, 1.5 mg, Sub 7, 1.5 mg dose, 12 h post dosing
MEASUREMENT NAME: concentration at 12 h (ng/mL)
Give your result in ng/mL as a bare value.

Looking for the measured concentration at 12 h of CC(=O)O[C@]1(C(C)=O)CC[C@H]2[C@@H]3C=C(C)C4=CC(=O)CC[C@]4(C)[C@H]3CC[C@@]21C [megestrol acetate] , can you help?
1.59
